system: SR leukemia; test: NCI tumour cell line growth inhibition, 48 h
Kindly state TGI for each of the entries shown.
Note: unit µM is implicit; provide only the numeric part.

Quote TGI reported for O=C(CCCCCCCCC(=O)N/N=C\c1cc(Cl)ccc1O)N/N=C\c1cc(Cl)ccc1O please.
16.7

Supply measured TGI of Nc1cc2c3c(cccc3c1)C(=O)N(c1ccc(OCCN3CCCC3)cc1)C2=O in your reply.
50.9

Tell me TGI reported for COc1ccc(-c2n/c(=C\c3c(O)[nH]c4ccccc34)cc3c2=Nc2ccccc2-3)cc1
3.15

Give the measured TGI for O=C(c1ccc2ccccc2c1)c1c(C(F)(F)F)n([O-])c2ccc(F)cc2[n+]1=O
1.49

Read the entry O=C1/C(=C\c2ccccc2)C2OCC=C3CN4CCC56c7ccccc7N1C5C2C3CC46 (centres undefined) and write its reported TGI.
8.76

###

Answer each item with its documented GI50.
test system: ACHN renal; assay: NCI tumour cell line growth inhibition, 48 h

Give reported GI50 value for Cc1ccc(-c2n[nH]c(=O)c3noc(-c4ccc(C)cc4)c23)cc1
3.16 µM

Consider the molecule O=C(c1ccc2ccccc2c1)c1c(C(F)(F)F)n([O-])c2ccc(F)cc2[n+]1=O and give its recorded GI50.
1.68 µM

Given the molecule [CH3][Sn]1([CH3])[O]CC(COc2cc(Cl)c(Cl)cc2Cl)[O]1 (stereo not drawn) , write its reported GI50.
85.5 µM

###

tested on: A498 renal; experiment: NCI tumour cell line growth inhibition, 48 h
What TGI was measured for each of the following?

Supply reported TGI belonging to this compound: O=P(O)(O)CN1CCNCCN(CP(=O)(O)O)CC1
> 100 µM

Annotate the compound O=c1[nH]nc(-c2ccccc2)n1-n1cnnc1 with its measured TGI.
> 100 µM

Quote TGI reported for CCOC(=O)C1=C(C)N(C2OC(COC(=O)c3ccccc3)C(OC(=O)c3ccccc3)C2OC(=O)c2ccccc2)C(=S)NC1c1ccccc1 (stereo not drawn) please.
> 100 µM

Determine from records and report TGI for Nc1ccn(C2OC(C(OC3OC(CO)C(O)C(N)C3O)C(O)C(O)C(O)C(O)CO)C(N)C(O)C2O)c(=O)n1 (stereo not drawn)
> 100 µM

Determine its reported TGI: CC/C(N)=N\NC(=O)OC(C)(C)C
> 100 µM

Return value of TGI for input COc1ccc(NC(=O)C2C(=O)N(c3ccc(OC)cc3)C(=O)/C2=N\NC(N)=O)cc1 (stereo not drawn) , no commentary.
45 µM

Please give measured TGI of the following entry: COC(=O)C(NC(=O)OC(C)(C)C)P(=O)(OC)OC (stereo not drawn)
> 100 µM

Determine its reported TGI: S=c1c2ccccc2c(=S)n2n1CC=CC2
> 100 µM

Read the entry CCCCCCCCCCCCOP(=O)(O)OP(=O)(O)OCC1OC(n2cc(C)c(=O)[nH]c2=O)CC1O (stereo not drawn) and write its reported TGI.
> 100 µM

Give the value of TGI reported for the following: COc1ccc(C)cc1C1CCC(=O)O1 (stereo not drawn)
> 100 µM

Identify measured TGI associated with O=c1[nH]c2ccc([N+](=O)[O-])cc2nc1/C=C(\O)c1ccccc1
47.4 µM

Could you please provide reported TGI for Clc1cc2nnn(C3CCCO3)c2cc1Cl (stereo not drawn) ? Thanks!
> 100 µM

Provide only the value of recorded TGI for CC(C)[Si](OCC1CC(C#N)OC(C)(C)O1)(C(C)C)C(C)C (stereo not drawn)
19.1 µM

Identify the reported TGI for the following entry. Cc1ccc(-c2n[nH]c(=O)c3noc(-c4ccc(C)cc4)c23)cc1
6.71 µM

Dear colleague, please send me the reported TGI for O=c1cc(N2CCCC2)[nH]c(=O)n1-c1ccc(Cl)cc1 when you can.
> 100 µM

Determine its reported TGI: CNC(c1ccncc1)C(NC)c1ccncc1 (stereo not drawn)
> 100 µM

Kindly indicate its recorded TGI. Item: O=C(/C=C/c1cccc2ccccc12)Nc1ncc(Cc2ccccc2)s1
0.72 µM

Return TGI (reported value) for this compound: COc1ccccc1NC(=S)N/N=C/c1cccc(C)n1
69.7 µM

Let me know recorded TGI for COc1cc2c3c(cc(Cl)nc3c1OC)C(O)(CC(=O)c1ccccc1)C(=O)N2 (stereo not drawn) , thanks.
32.3 µM

Assign TGI to the following record: NC(=O)c1ccc(N(C(N)=O)c2c(F)cccc2F)nc1-c1ccc(F)cc1F
> 100 µM

Name the recorded TGI of the compound listed here: COc1cc(-c2cc(=O)c3c(O)c(OC)c(OC)c(OC)c3o2)cc(OC)c1OC
9.14 µM

For the compound O=S(=O)(O)c1cc(S(=O)(=O)O)c2c(N=Nc3ccc(N=Nc4ccccc4)cc3)c(O)ccc2c1 , give its reported TGI.
> 100 µM

Dear colleague, please send me the reported TGI for CN(C)CCCNC(=O)c1cn2c(ccc3sc4ccccc4c(=O)c32)n1 when you can.
30.7 µM
